Values were extracted from patent US10618964B2.

Biological target: soluble IL-6R in cynomolgous plasma (cynomolgus monkey, UniProt A0A2K5WN54)
Assay: ELISA 2, periplasmic extract; competitor IL-6; cyno plasma
Class True: OD450 ratio sample/blank at least 1. Class False: OD450 ratio sample/blank below 1.

QUERY: Record IL6RPMP101A1 (VHH) VHH: EVQLVESGGGTVQAGGSLKLSCAASGRTFTNYAMGWFRQAPGKEREFVAAIAYATHFADSVKGRFTISRGNAKNTVYLQMNSLKPEDTAVYYCAADLSLSKMVSKITSDMDYWGKGTLVTVSS ; criterion: OD450 ratio sample/blank no lower than 1. Met?
RESULT: False

QUERY: Record IL6RPMP120B7 (VHH) VHH: EVQLVESGGGLVQAGGSLSLSCATSGRTISDDTMAWFRQAPGKEREFVATITFSGARTHYSDSVRDRFTISRDNAKNTVYLQMNSLKSEDTAVYYCAASTKYYSSTYNYIHPAFYDIWGQGTQVTVSS ; criterion: OD450 ratio sample/blank no lower than 1. Met?
RESULT: False

QUERY: Record IL6RPMP106F4 (VHH) VHH: EVQLVESGGGLVQAGGSLRLSCAASGSIFRINAMGWYRQAPGKQRELVAAAISGGSTNYADFVKGRFTISRDNAKNTVYLQMNSLKPGDTAVYYCNALVVSHNYSDYVPFPDDYWGQGTQVTVSS ; criterion: OD450 ratio sample/blank no lower than 1. Met?
RESULT: True

QUERY: Record IL6RPMP108D1 (VHH) VHH: EVQLVESGGGLVQAGGSLRLSCTASGRTFSDYDMGWFRQAPGKERECVAVIDTNGDNTLTVGSVKGRFAISRDNAKNTVYLQMNSLLPEDTAVYTCAAGAWSSLRSTAANYWGQGTKVTVSS ; criterion: OD450 ratio sample/blank no lower than 1. Met?
RESULT: False
